measurement.protocol: Pharmacokinetic experiment in SD rats after oral administration
Type: in vivo
experimental.setup: p.o., 5 mg/kg, plasma
readout.kind: Time to peak tmax (h)
# unit: h | format: bare number

Reported Time to peak tmax of `C=CC(=O)N1CC[C@H](n2nc(C#Cc3ccc4cn(CC)nc4c3)c3c(N)ncc(C(C)=O)c32)C1` : 0.5

Reported Time to peak tmax of `C=CC(=O)N1CC[C@H](n2nc(C#Cc3ccc4ccnn4c3)c3c(N)ncc(C(=O)CC)c32)C1` : 0.5

Reported Time to peak tmax of `C=CC(=O)N1CC[C@H](n2nc(C#Cc3ccc4cn(C)nc4c3)c3c(N)ncc(C(C)=O)c32)C1` : 1

Reported Time to peak tmax of `C=CC(=O)N1CC[C@H](n2nc(C#Cc3ccc4cn(C5CC5)nc4c3)c3c(N)ncc(C(C)=O)c32)C1` : 2

Reported Time to peak tmax of `C=CC(=O)N1CC[C@H](n2nc(C#Cc3ccc4c(c3)ncn4C3CC3)c3c(N)ncc(C(=O)C4CC4)c32)C1` : 2

Reported Time to peak tmax of `C=CC(=O)N1CC[C@H](n2nc(C#Cc3ccc4oc(C5CC5)nc4c3)c3c(N)ncc(C(C)=O)c32)C1` : 4

Reported Time to peak tmax of `C=CC(=O)N1CC[C@H](n2nc(C#Cc3ccc4c(c3)ncn4C3CC3)c3c(N)ncc(C(=O)CC)c32)C1` : 2

Reported Time to peak tmax of `C=CC(=O)N1CC[C@H](n2nc(C#Cc3cc4ncn(C5CC5)c4cc3F)c3c(N)ncc(C(=O)CC)c32)C1` : 2

Reported Time to peak tmax of `C=CC(=O)N1CC[C@H](n2nc(C#Cc3ccc4c(c3)ncn4C)c3c(N)ncc(C(=O)CC)c32)C1` : 2

Reported Time to peak tmax of `C=CC(=O)N1CC[C@H](n2nc(C#Cc3cc4ncn(C5CC5)c4cc3Cl)c3c(N)ncc(C(=O)CC)c32)C1` : 2
